The entries below come with measured bioavailability values attached.
# experimental_protocol: Oral bioavailability in Wistar Han rat at 3 micromol/kg
# Assay type: ADME, organism-based
# cond: in vivo, 3 µmol/kg
Write down the numeric answer in % and omit the unit.

See these solved cases before continuing.
CNc1nc2nc3c1[nH]c(=O)n3Cc1cccc(c1)OCCOCCO2 :: 64
CNc1nc(OCCOC)nc2c1[nH]c(=O)n2Cc1ccccc1 :: 31

We next turn to a different molecule, shown below.
Entry `CNC(=O)c1cnc2cc(OC)c(OC)cc2c1Nc1ccc(Cl)cc1F` has what bioavailability?
37

###

# experimental_protocol: Half-life in Wistar Han rat at 3 micromol/kg, po or 1.5 micromol/kg. iv
# Type: ADME, organism-based
# cond: in vivo, dose 3 µmol/kg
quantity_measured: half-life

See these solved cases before continuing.
CNc1nc(OCCOC)nc2c1[nH]c(=O)n2Cc1ccccc1 :: 1.2 h
CNC(=O)c1cnc2cc(OC)c(OC)cc2c1Nc1ccc(Cl)cc1F :: 3 h

We next turn to a different compound, shown below.
Entry `CNc1nc2nc3c1[nH]c(=O)n3Cc1cccc(c1)OCCOCCO2` has what half-life?
1.3 h

###

The entries below come with measured Papp A→B values attached.
# experimental_protocol: Permeability of compound from apical to basolateral side in human Caco2 cells at pH 7.4
# Type: ADME, cell-based
# cond: Caco-2, pH 7.4, read-out: permeability
Write down the numeric answer in ×10⁻⁶ cm/s and omit the unit.

See these solved cases before continuing.
CNc1nc2nc3c1[nH]c(=O)n3Cc1cccc(c1)OCCOCCO2 :: 3.2
CNc1nc(OCCOC)nc2c1[nH]c(=O)n2Cc1ccccc1 :: 5.2
CNc1nc2nc3c1[nH]c(=O)n3Cc1cccc(c1)OCCCCO2 :: 6

Entry `CNc1nc2nc3c1[nH]c(=O)n3Cc1cccc(c1)OCCCCCO2` has what Papp A→B?
8.2

###

# experimental_protocol: Intrinsic clearance in human liver microsome
# Assay type: ADME
# cond: liver microsomes, read-out: CLH
quantity_measured: log10 of microsomal CLint (log10 of the value in µL/min/mg)
Scale: log10; quantity: microsomal CLint; unit before log: µL/min/mg

See these solved cases before continuing.
CNc1nc2nc3c1[nH]c(=O)n3Cc1cccc(c1)OCCOCCO2 :: 1.68
CNC(=O)c1cnccc1Nc1ccc(Cl)cc1F :: 1.00
CNc1nc2nc3c1[nH]c(=O)n3Cc1cccc(c1)OCCCCCO2 :: 2.27
CNC(=O)c1cnc2cc(OC)c(OCN3CCN(C)CC3)cc2c1Nc1ccccc1 :: 0.90
CN(C)CCc1ccc(-c2nc(N)nc3ccccc23)cc1 :: 0.70
CN(C)c1nc(-c2ccccc2)c2ccccc2n1 :: 2.08
CNC(=O)c1cnc2cc(OC)c(OC)cc2c1Nc1ccc(Cl)cc1F :: 1.11
CNc1nc2nc3c1[nH]c(=O)n3Cc1cccc(c1)OCCCCO2 :: 2.29

Entry `CNC(=O)c1cnc2cc(OC)c(OC)cc2c1Oc1ccccc1` has what log10 of microsomal CLint?
1.11

###

# experimental_protocol: Aqueous solubility of compound at pH 7.4
# Assay type: physicochemical
# cond: buffer
The entries below come with measured solubility values attached.
Write down the numeric answer in µM and omit the unit.

CN(C)c1nc(-c2ccccc2)c2ccccc2n1 :: 1
CNC(=O)c1cnc2cc(OC)c(OC)cc2c1Oc1ccccc1 :: 35
CNC(=O)c1cnc2cc(OC)c(OC)cc2c1Nc1ccc(Cl)cc1F :: 15
CNc1nc(-c2ccccc2)c2ccccc2n1 :: 7

Entry `CNC(=O)c1cnc2ccccc2c1Nc1ccc(Cl)cc1F` has what solubility?
8

Entry `CN(C)CCc1ccc(-c2nc(N)nc3ccccc23)cc1` has what solubility?
118

Entry `CNC(=O)c1cnc2cc(OC)c(OC)cc2c1Nc1ccccc1` has what solubility?
108

Entry `CNC(=O)c1cnccc1Nc1ccc(Cl)cc1F` has what solubility?
39
